Consider the following molecules; for each one, report its ED50.
TARGET: Mu-type opioid receptor (Cavia porcellus) (UniProt P97266)
Sequence (P97266 whole entry): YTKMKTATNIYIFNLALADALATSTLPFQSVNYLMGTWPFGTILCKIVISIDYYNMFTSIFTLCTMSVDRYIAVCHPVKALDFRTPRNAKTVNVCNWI
MEASUREMENT_DESCRIPTION: Evaluated for analgesic activity as effective dose
Assay type: functional
Numbers only, in mg/kg.

Worked cases, answers included:
# MOLECULE, ED50 [mg/kg]
records = [
    ("CCC(O)C(C[C@@H](C)NC)(c1ccccc1)c1ccccc1 (some centres not stated)", 17.7),
    ("CCC(=O)C(c1ccccc1)(c1ccccc1)[C@H](C)CN(C)C", 1.2),
    ("CCC(=O)C(C[C@@H](C)N(C)C)(c1ccccc1)c1ccccc1", 0.8),
    ("CC[C@@H](O)C(c1ccccc1)(c1ccccc1)[C@H](C)CN(C)C", 91.7),
    ("CC[C@@H](O)C(C[C@H](C)N(C)C)(c1ccccc1)c1ccccc1", 63.7),
]

# return ED50 for each item in the list
1. CCC(O)C(C[C@H](C)NC)(c1ccccc1)c1ccccc1 (some centres not stated)
2. CCC(=O)C(c1ccccc1)(c1ccccc1)[C@@H](C)CN(C)C
3. CC[C@@H](O)C(C[C@@H](C)N(C)C)(c1ccccc1)c1ccccc1
4. CC[C@H](O)C(C[C@H](C)N(C)C)(c1ccccc1)c1ccccc1
5. CC[C@H](O)C(C[C@@H](C)N(C)C)(c1ccccc1)c1ccccc1
6. CCC(=O)C(CC(C)N(C)C)(c1ccccc1)c1ccccc1 (stereo in doubt; erythro)

Response:
10.3
49.8
24.7
3.5
7.6
0.4

# return ED50 for each item in the list
1. CCC(=O)C(CCN(C)C)(c1ccccc1)c1ccccc1
2. CC[C@H](O)C(c1ccccc1)(c1ccccc1)[C@@H](C)CN(C)C
3. CC[C@H](O)C(c1ccccc1)(c1ccccc1)[C@H](C)CN(C)C
4. CC[C@@H](O)C(c1ccccc1)(c1ccccc1)[C@@H](C)CN(C)C

Response:
1. 2.5
2. 60.7
3. 6.2
4. 58.7

Request: Let me know recorded ED50 for CCC(=O)C(C[C@H](C)N(C)C)(c1ccccc1)c1ccccc1 , thanks.
Response: 25.7
